target-entity: angiotensin II receptor type 2 (AT2), bovine cerebellar cortex (Bos taurus, UniProt G5E6F7)
Construct: Receptor: bovine cerebellar cortex; from tissue; host or cells: bovine cerebellar cortex
Sequence (G5E6F7 1-362): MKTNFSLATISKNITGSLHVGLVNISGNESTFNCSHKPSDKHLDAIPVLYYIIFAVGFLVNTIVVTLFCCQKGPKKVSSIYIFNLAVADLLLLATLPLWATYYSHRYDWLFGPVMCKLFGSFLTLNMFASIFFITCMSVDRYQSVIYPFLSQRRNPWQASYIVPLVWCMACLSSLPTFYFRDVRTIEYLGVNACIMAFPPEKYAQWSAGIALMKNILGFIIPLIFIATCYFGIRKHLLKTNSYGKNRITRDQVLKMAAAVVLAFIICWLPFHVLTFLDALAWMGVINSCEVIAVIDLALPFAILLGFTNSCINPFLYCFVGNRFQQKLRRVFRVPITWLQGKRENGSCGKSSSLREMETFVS
assay-procedure: Receptor binding test, AT2 (tracer 125I-Tyr4-angiotensin II, displacer angiotensin II (human))
measurement-parameters: 1 h; 1 μM; receptor: bovine cerebellar cortex; 37° C., one hour; read-out: Binding inhibition ratio (%) of the test compounds at 1 μM, AT2
measured-endpoint: inhibition at 1 µM

The following compounds have reported results that may help.
INSERT INTO assay_data (compound, meas_value) VALUES
  ('O=C(O)C1Cc2c(ncn2Cc2ccc(-c3ccccc3-c3nn[nH]n3)cc2)CN1C(=O)C(c1ccccc1)c1ccccc1 (stereo not drawn) [Reference compound 27, reference compound]', '76%'),
  ('O=C([C@@H]1Cc2c(ncn2Cc2ccc(-c3ccccc3-c3nnn[nH]3)cc2)CN1C(=O)C(c1ccccc1)c1ccccc1)N1CCOCC1', '100%'),
  ('CN(C)C(=O)[C@@H]1Cc2c(ncn2Cc2ccc(NC(=O)c3ccccc3C(=O)O)cc2)CN1C(=O)C(c1ccccc1)c1ccccc1', '100%'),
  ('CCCCc1nc2c(n1Cc1ccc(-c3ccccc3-c3nn[nH]n3)cc1)C[C@@H](C(=O)N1CCOCC1)N(C(=O)C(c1ccccc1)c1ccccc1)C2', '0%');

In: Dear colleague, I am looking for the recorded inhibition at 1 µM of the following compound: CCCCc1nc2c(n1Cc1ccc(NC(=O)c3ccccc3C(=O)O)c(C)c1)C[C@@H](C(=O)N(C)C)N(C(=O)C(c1ccccc1)c1ccccc1)C2
Out: 0%

In: Looking for the measured inhibition at 1 µM of COC(=O)C1Cc2c(ncn2Cc2ccc(NC(=O)c3ccccc3C(=O)O)c(C)c2)CN1C(=O)C(c1ccccc1)c1ccccc1 (stereo not drawn) [Reference compound 2, reference compound] , can you help?
Out: 72%

---

target-entity: angiotensin II receptor type 2 (AT2), bovine cerebellar cortex (Bos taurus, UniProt G5E6F7)
Construct: Receptor: bovine cerebellar cortex; from tissue; host or cells: bovine cerebellar cortex
assay-procedure: Receptor binding test, AT2 (tracer 125I-Tyr4-angiotensin II, displacer angiotensin II (human))
measurement-parameters: 1 h; 1 μM; receptor: bovine cerebellar cortex; 37° C., one hour; read-out: Binding inhibition ratio (%) of the test compounds at 1 μM, AT2
measured-endpoint: inhibition at 1 µM (%)
Numeric only. Scale: %

Known results for compounds:
INSERT INTO assay_data (compound, measured_endpoint, readout_units, meas_value) VALUES
  ('CCCc1nc2c(n1Cc1ccc(-c3ccccc3-c3nn[nH]n3)cc1)CC(C(=O)O)N(C(=O)C(c1ccccc1)c1ccccc1)C2 (stereo not drawn) [Reference compound 50, reference compound]', 'inhibition at 1 µM', '%', 0),
  ('Cc1cc(Cn2cnc3c2C[C@@H](C(=O)N2CCOCC2)N(C(=O)C(c2ccccc2)c2ccccc2)C3)ccc1NC(=O)c1ccccc1C(=O)O', 'inhibition at 1 µM', '%', 100),
  ('CCCCc1nc2c(n1Cc1ccc(-c3ccccc3-c3nn[nH]n3)cc1)C[C@@H](C(=O)N(CC)CC)N(C(=O)C(c1ccccc1)c1ccccc1)C2', 'inhibition at 1 µM', '%', 0),
  ('CCCCc1nc2c(n1Cc1ccc(-c3ccccc3C(=O)O)cc1)C[C@@H](C(=O)N(C)C)N(C(=O)C(c1ccccc1)c1ccccc1)C2', 'inhibition at 1 µM', '%', 0),
  ('CCCCc1nc2c(n1Cc1ccc(NC(=O)c3ccccc3C(=O)O)c(C)c1)C[C@@H](C(=O)N1CCOCC1)N(C(=O)C(c1ccccc1)c1ccccc1)C2', 'inhibition at 1 µM', '%', 0),
  ('CCCCc1nc2c(n1Cc1ccc(-c3ccccc3-c3nn[nH]n3)c(C)c1)C[C@@H](C(=O)N(C)C)N(C(=O)C(c1ccccc1)c1ccccc1)C2', 'inhibition at 1 µM', '%', 0),
  ('O=C(O)c1ccc(Cn2cnc3c2C[C@@H](C(=O)N2CCOCC2)N(C(=O)C(c2ccccc2)c2ccccc2)C3)cc1', 'inhibition at 1 µM', '%', 100),
  ('CCCCc1nc2c(n1Cc1ccc(-c3ccccc3-c3nn[nH]n3)cc1)C[C@@H](C(=O)N1CCSCC1)N(C(=O)C(c1ccccc1)c1ccccc1)C2', 'inhibition at 1 µM', '%', 0),
  ('CCCc1nc2c(n1Cc1ccc(-c3ccccc3-c3nn[nH]n3)c(C)c1)CC(C(=O)O)N(C(=O)C(c1ccccc1)c1ccccc1)C2 (stereo not drawn) [Reference compound 26, reference compound]', 'inhibition at 1 µM', '%', 0),
  ('Cc1cc(Cn2cnc3c2CC(C(=O)O)N(C(=O)C(c2ccccc2)c2ccccc2)C3)ccc1NC(=O)c1ccccc1C(=O)O (stereo not drawn) [Reference compound 1, reference compound]', 'inhibition at 1 µM', '%', 71);

In: Look up inhibition at 1 µM for this compound: Cc1cc(Cn2cnc3c2CC(C(=O)O)N(C(=O)C(c2ccccc2)c2ccccc2)C3)ccc1N (stereo not drawn) [PD123177, reference compound]
Out: 65

In: Any idea what its inhibition at 1 µM is? The compound is Cc1cc(Cn2cnc3c2C[C@@H](C(=O)N(C)C)N(C(=O)C(c2ccccc2)c2ccccc2)C3)ccc1NC(=O)c1ccccc1C(=O)O
Out: 100

---

Parameter: inhibition at 1 µM. Scope: all listed entries.
target-entity: angiotensin II receptor type 1 (AT1), suprarenal gland of rabbit (Oryctolagus cuniculus, UniProt P34976)
Construct: Receptor: suprarenal gland of rabbit; from tissue; host or cells: suprarenal gland (adrenal) of rabbit
Sequence (P34976 1-359): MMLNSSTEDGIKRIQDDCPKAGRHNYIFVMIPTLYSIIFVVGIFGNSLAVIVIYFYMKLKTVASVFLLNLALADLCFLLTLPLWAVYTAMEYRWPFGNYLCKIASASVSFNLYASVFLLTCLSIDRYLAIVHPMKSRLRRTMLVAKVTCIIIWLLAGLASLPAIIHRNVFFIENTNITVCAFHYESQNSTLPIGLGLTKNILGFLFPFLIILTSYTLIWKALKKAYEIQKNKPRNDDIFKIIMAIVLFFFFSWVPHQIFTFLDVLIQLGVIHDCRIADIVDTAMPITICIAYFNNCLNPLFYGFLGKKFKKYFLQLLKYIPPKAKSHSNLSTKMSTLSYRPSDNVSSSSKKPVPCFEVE
assay-procedure: Receptor binding test, AT1 (tracer 3H-angiotensin II, displacer DuP753)
measurement-parameters: room temperature, read-out: Binding inhibition ratio (%) of the test compounds at 1 μM, AT1
State just the number; it will be interpreted in %.

In: What value of measured inhibition at 1 µM is listed for CCCCc1nc2c(n1Cc1ccc(NC(=O)c3ccccc3C(=O)O)c(C)c1)C[C@@H](C(=O)N(C)C)N(C(=O)C(c1ccccc1)c1ccccc1)C2 [Compound I-12] ?
Out: 100

---

target-entity: angiotensin II receptor type 1 (AT1), suprarenal gland of rabbit (Oryctolagus cuniculus)
Construct: Receptor: suprarenal gland of rabbit; from tissue; host or cells: suprarenal gland (adrenal) of rabbit
assay-procedure: Receptor binding test, AT1 (tracer 3H-angiotensin II, displacer DuP753)
measurement-parameters: room temperature, read-out: Binding inhibition ratio (%) of the test compounds at 1 μM, AT1
measured-endpoint: inhibition at 1 µM (%)
Write the answer as a number in %, unit excluded.

As a guide, the following entries are already answered.
INSERT INTO assay_data (compound, meas_value) VALUES
  ('CCCCc1nc2c(n1Cc1ccc(-c3ccccc3-c3nn[nH]n3)cc1)C[C@@H](C(=O)N1CCOCC1)N(C(=O)C(c1ccccc1)c1ccccc1)C2 [Compound I-31]', 100),
  ('CCCc1nc2c(n1Cc1ccc(-c3ccccc3-c3nn[nH]n3)cc1)CC(C(=O)O)N(C(=O)C(c1ccccc1)c1ccccc1)C2 (centres unmarked) [Reference compound 50, reference compound]', 75),
  ('Cc1cc(Cn2cnc3c2C[C@@H](C(=O)N2CCOCC2)N(C(=O)C(c2ccccc2)c2ccccc2)C3)ccc1NC(=O)c1ccccc1C(=O)O [Compound I-7]', 0),
  ('CCCCc1nc(Cl)c(CO)n1Cc1ccc(-c2ccccc2-c2nn[nH]n2)cc1 [DuP753, reference compound]', 70);

In: Need inhibition at 1 µM, item O=C([C@@H]1Cc2c(ncn2Cc2ccc(-c3ccccc3-c3nnn[nH]3)cc2)CN1C(=O)C(c1ccccc1)c1ccccc1)N1CCOCC1 [Compound I-24]
Out: 0

---

Measured inhibition at 1 µM values are reported for all entries that follow.
target-entity: angiotensin II receptor type 1 (AT1), suprarenal gland of rabbit (Oryctolagus cuniculus)
Construct: Receptor: suprarenal gland of rabbit; from tissue; host or cells: suprarenal gland (adrenal) of rabbit
Sequence (P34976 1-359): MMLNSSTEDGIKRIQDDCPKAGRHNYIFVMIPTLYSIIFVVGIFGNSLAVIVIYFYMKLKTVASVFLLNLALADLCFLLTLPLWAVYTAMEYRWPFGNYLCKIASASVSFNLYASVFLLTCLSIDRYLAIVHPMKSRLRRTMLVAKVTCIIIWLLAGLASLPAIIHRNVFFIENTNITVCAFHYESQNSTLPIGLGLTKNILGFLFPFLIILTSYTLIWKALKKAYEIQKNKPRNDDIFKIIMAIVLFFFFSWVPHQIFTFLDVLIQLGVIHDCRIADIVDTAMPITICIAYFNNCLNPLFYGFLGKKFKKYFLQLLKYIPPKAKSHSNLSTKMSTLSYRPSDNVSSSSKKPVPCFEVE
assay-procedure: Receptor binding test, AT1 (tracer 3H-angiotensin II, displacer DuP753)
measurement-parameters: room temperature, read-out: Binding inhibition ratio (%) of the test compounds at 1 μM, AT1
Give your result in % as a bare value.

Look over these answered cases.
INSERT INTO measurements (compound, meas_value) VALUES
  ('CCCCc1nc2c(n1Cc1ccc(-c3ccccc3-c3nn[nH]n3)cc1)C[C@@H](C(=O)N1CCSCC1)N(C(=O)C(c1ccccc1)c1ccccc1)C2', 100),
  ('CN(C)C(=O)[C@@H]1Cc2c(ncn2Cc2ccc(NC(=O)c3ccccc3C(=O)O)cc2)CN1C(=O)C(c1ccccc1)c1ccccc1', 0),
  ('CCCCc1nc2c(n1Cc1ccc(-c3ccccc3C(=O)O)cc1)C[C@@H](C(=O)N(C)C)N(C(=O)C(c1ccccc1)c1ccccc1)C2', 100);

In: Quick one: inhibition at 1 µM of CCCCc1nc2c(n1Cc1ccc(NC(=O)c3ccccc3C(=O)O)c(C)c1)C[C@@H](C(=O)N1CCOCC1)N(C(=O)C(c1ccccc1)c1ccccc1)C2 ?
Out: 100

In: Entry under review: COC(=O)C1Cc2c(ncn2Cc2ccc(NC(=O)c3ccccc3C(=O)O)c(C)c2)CN1C(=O)C(c1ccccc1)c1ccccc1 (stereo not drawn) [Reference compound 2, reference compound] . Reported inhibition at 1 µM?
Out: 0

In: What value of inhibition at 1 µM has been reported for the following compound? Cc1cc(Cn2cnc3c2C[C@@H](C(=O)N(C)C)N(C(=O)C(c2ccccc2)c2ccccc2)C3)ccc1NC(=O)c1ccccc1C(=O)O
Out: 0
